test target: UniProt Q830N0
Sequence (Q830N0 1-506): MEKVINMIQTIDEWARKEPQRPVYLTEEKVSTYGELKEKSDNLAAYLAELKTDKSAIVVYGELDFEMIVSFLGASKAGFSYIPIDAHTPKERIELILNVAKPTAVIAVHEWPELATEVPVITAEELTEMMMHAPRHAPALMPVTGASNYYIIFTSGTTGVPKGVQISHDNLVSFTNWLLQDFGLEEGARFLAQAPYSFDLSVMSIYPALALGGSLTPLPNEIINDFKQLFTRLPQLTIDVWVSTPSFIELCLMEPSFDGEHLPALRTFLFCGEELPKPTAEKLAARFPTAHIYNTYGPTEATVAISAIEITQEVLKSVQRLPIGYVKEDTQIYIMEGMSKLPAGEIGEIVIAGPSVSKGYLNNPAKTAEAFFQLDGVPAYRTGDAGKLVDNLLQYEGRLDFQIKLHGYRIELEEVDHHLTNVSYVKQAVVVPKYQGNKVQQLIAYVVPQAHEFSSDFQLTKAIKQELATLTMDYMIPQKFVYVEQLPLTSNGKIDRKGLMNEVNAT
assay method text: in vitro DltA activity assay (luminescence), E. faecalis DltA
Type: biochemical
measurement context: recombinant DltA, 30 min pre-incubation, 0.5 mM D-Alanine, 0.5-5 μM ATP; read-out: E. feacalis DltA IC50
Structures can show the parent of a compound that is named as a salt.
In this section, each of the compounds is paired with its reported IC50.

compound: c1nc2c(-c3ccc4c(c3)ncn4C3CCCCC3)nc(N3CC4CNCC4C3)cc2[nH]1 (stereo not drawn)
IC50 (µM): 0.57

compound: CN(C)CCN(C)c1cc(-c2ccc3c(c2)ncn3-c2ccccc2)c2nc[nH]c2c1C(N)=O
IC50 (µM): 0.012

compound: CN(CCO)c1cc(-c2ccc3c(c2)ncn3[C@@H]2CCCC[C@H]2F)c2nc[nH]c2c1C(N)=O
IC50 (µM): 0.0067

compound: CN(C)CCN(C)c1cc(-c2ccc3c(c2)ncn3CC(F)F)c2nc[nH]c2c1C(N)=O
IC50 (µM): 0.0054

compound: OCC1CCN(c2cc(-c3ccc4c(c3)ncn4C3CCCCC3)c3nc[nH]c3n2)CC1
IC50 (µM): 0.052

compound: CN(C)CCOc1cc(-c2cnc3c(c2)CCCO3)c2nc[nH]c2c1C(N)=O
IC50 (µM): 0.0045

compound: CN(C)CCN(C)c1cc(-c2ccc3c(c2)ncn3C2CCC(F)(F)CC2)c2nc[nH]c2c1C(N)=O
IC50 (µM): 0.0081

compound: CN(C)CCN(CCO)c1cc(-c2ccc3c(c2)ncn3C2CCCCC2)c2nc[nH]c2c1C(N)=O
IC50 (µM): 0.04

compound: O=[N+]([O-])c1c(N2CC[C@H](CO)C2)cc(-c2ccc3c(c2)ncn3C2CCCCC2)c2nc[nH]c12
IC50 (µM): 0.03

compound: O=C(NO)c1c(F)cc(-c2ccc3c(c2)ncn3C2CCCCC2)c2nc[nH]c12
IC50 (µM): 0.61

compound: CCCCn1cnc2cc(-c3cc(N(C)CCN(C)C)c(C(N)=O)c4[nH]cnc34)ccc21
IC50 (µM): 0.0073

compound: CN1CCCC(Oc2cc(-c3cnc4c(c3)CCCO4)c3nc[nH]c3c2C(N)=O)C1 (stereo not drawn)
IC50 (µM): 0.061

compound: CN(CCN1CCCC1)c1cc(-c2cnc3c(c2)CCCO3)c2nc[nH]c2c1C(N)=O
IC50 (µM): 0.0092

compound: O=C(O)c1c(N2CC[C@H](CO)C2)cc(-c2ccc3c(c2)ncn3C2CCCCC2)c2nc[nH]c12
IC50 (µM): 0.15

compound: NC(=O)c1c(N2CC3CNCC3C2)cc(-c2ccc3c(c2)ncn3C2CCCCC2)c2nc[nH]c12 (stereo not drawn) [Example 65, hydrochloride]
IC50 (µM): 0.036

compound: CN(CCO)c1cc(-c2ccc3c(c2)ncn3C2CCCCC2)c2nc[nH]c2c1C#N
IC50 (µM): 0.24

compound: CN(CCO)c1cc(-c2cnc3c(c2)CCCO3)c2nc[nH]c2c1C(N)=O
IC50 (µM): 0.045

compound: OC[C@H]1CCN(c2cc(-c3ccc4c(c3)ncn4C3CCCCC3)c3nc[nH]c3n2)C[C@@H]1O
IC50 (µM): 0.018

compound: NC(=O)c1c(N2CCC(CO)(CO)CC2)cc(-c2ccc3c(c2)ncn3C2CCCCC2)c2nc[nH]c12
IC50 (µM): 0.0068

compound: CCN(CC)CCN(C)c1cc(-c2ccc3c(c2)ncn3C2CCCCC2)c2nc[nH]c2c1C(N)=O
IC50 (µM): 0.036

compound: CN(C)CCN(C)c1cc(-c2cncc(N3CCCC3)c2)c2nc[nH]c2c1C(N)=O
IC50 (µM): 0.03

compound: CCn1cnc2cc(-c3nc(N(C)CCN(C)C)c(C(N)=O)c4[nH]cnc34)ccc21
IC50 (µM): 0.071

compound: OCC1(CO)CCN(c2cc3[nH]cnc3c(-c3ccc4c(c3)ncn4C3CCCCC3)n2)CC1
IC50 (µM): 0.056

compound: c1nc2c(-c3ccc4c(c3)ncn4C3CCCCC3)cc(N3CC4CNCC4C3)nc2[nH]1 (stereo not drawn)
IC50 (µM): 0.019

compound: CN(C)CC1CCCN1c1cc(-c2ccc3c(c2)ncn3C2CCCCC2)c2nc[nH]c2c1C(N)=O (stereo not drawn)
IC50 (µM): 0.056

compound: CN(C)CCN(C)c1cc(-c2cc3c4c(c2)ncn4CCO3)c2nc[nH]c2c1C(N)=O
IC50 (µM): 0.026

compound: CN(C)C1CCCN(c2cc(-c3cnc4c(c3)CCCO4)c3nc[nH]c3c2C(N)=O)C1 (stereo not drawn)
IC50 (µM): 0.009

compound: OC[C@H]1CCN(c2cc3[nH]cnc3c(-c3ccc4c(c3)ncn4C3CCCCC3)n2)C[C@@H]1O
IC50 (µM): 0.46

compound: OCCNc1cc(-c2ccc3c(c2)ncn3C2CCCCC2)c2nc[nH]c2n1
IC50 (µM): 0.38

compound: NC(=O)c1c(N2CC[C@H](CO)C2)cc(-c2ccc3c(c2)ncn3C2CCCCC2)c2nc[nH]c12
IC50 (µM): 0.027
